Cited source: PubChem BioAssay (NCI)

# Tested on: OVCAR-4 ovarian
# experimentDescription: NCI tumour cell line growth inhibition, 48 h
Where a SMILES comes first, the peptide text is derived from it. [ ]: non-standard residue; d: D form. Orn = NCCC[CH](N)C(=O)O
# GI50 per entry

Take a look at these entries with their results.
[
  {
    "molecule": "CSc1ccc2c(c1)C(=O)c1c-2n(CCCN=[N+]=[N-])c(=O)c2cc([N+](=O)[O-])ccc12",
    "GI50": "> 100000 nM"
  },
  {
    "molecule": "Nc1nn(C(=O)Nc2ccc(Cc3ccccc3)cc2)c2ccccc12",
    "GI50": "10700 nM"
  },
  {
    "molecule": "Cc1cc(Cl)ccc1Nc1nc(C(F)(F)F)ccc1C(=O)N/N=C/c1c(Cl)cccc1Cl",
    "GI50": "289 nM"
  }
]

Next, consider the following molecule.
q: Give its GI50 value. Item: CC(C)CC1NC(=O)C(CCCN)NC(=O)C(C(C)C)NC(=O)C2CCCN2C(=O)C(Cc2ccccc2)NC(=O)C(CC(C)C)NC(=O)C(CCCN)NC(=O)C(C(C)C)NC(=O)C2CCCN2C(=O)C(Cc2ccccc2)NC1=O (centres undefined) (cyclo(FPV[Orn]LFPV[Orn]L); configuration not given here)
a: 13.3 nM

----------
# Tested on: MCF7 breast
# experimentDescription: NCI tumour cell line growth inhibition, 48 h; in the data active = GI50 below about 0.43 µM; inactive = the rest
Response enum: 1 (yes) (active), 0 (no) (inactive)

Sample answers from the record:
[
  {
    "molecule": "COC(=O)/C(Br)=C/c1c[nH]c2ccc(Br)cc12",
    "labelClass": "0 (no)"
  },
  {
    "molecule": "C(#Cc1ccccc1C#Cc1ccccn1)c1ccc(OCCCCCCOc2ccc(C#Cc3ccccc3C#Cc3ccccn3)cc2)cc1",
    "labelClass": "0 (no)"
  },
  {
    "molecule": "CC(=O)O[C@@H]1CC(=O)O[C@@H]2C[C@@H](CC/C(Cl)=C/C/C=C\\1C)O[C@@H]2CO",
    "labelClass": "0 (no)"
  },
  {
    "molecule": "CC(=O)/C=C/c1ccc(N(C)Cc2ccc(C(C)(C)C)cc2)cc1",
    "labelClass": "0 (no)"
  }
]

q: Look up the recorded call for N#CC(C#N)=Cc1ccc(-c2ccc(-c3nc4ccccc4s3)cc2)s1 in this test.
a: 0 (no)

q: Identify the outcome logged in this assay for the molecule shown: COc1ccc2oc(-c3ccc(Cl)cc3)c(N3CCN(C)CC3)c2c1
a: 0 (no)

q: Given COC(=O)C12OCC34C(CC5C(C)=CC(=O)C(O)C5(C)C3C(O)C1O)OC(=O)C(OC(=O)CC(C)C)C24 (stereo not given) , state the outcome it received in this test.
a: 1 (yes)

----------
Each entry below lists one item and its recorded TGI value.
# System: LOX IMVI melanoma
# experimentDescription: NCI tumour cell line growth inhibition, 48 h
Your answer should be a plain number; it is taken to be in µM.

[
  {
    "molecule": "O=C(Nc1ccc(F)cc1)c1cc2ccc(O)cc2oc1=Nc1cccc(F)c1",
    "experimentalValue": 52.6
  },
  {
    "molecule": "N=c1c2c(=O)n3c(nc2nc2sc4ccc(Cl)cc4n12)-c1ccccc1Sc1ccccc1-3",
    "experimentalValue": 20.2
  },
  {
    "molecule": "COC(=O)[C@]1(C)CCC[C@]2(C)C3CC4OOC3(C=C4C(C)C)CCC21 (stereo not given in full)",
    "experimentalValue": 11.5
  },
  {
    "molecule": "COc1ccc2cc(C(=O)/C=C/c3ccccc3OC)ccc2c1",
    "experimentalValue": 3.89
  }
]

q: # query: TGI | item COc1ccc2oc(-c3ccc(Cl)cc3)c(N3CCN(C)CC3)c2c1 | system: LOX IMVI melanoma
a: 3.07
